- System: Streptococcus
- measurement_protocol: GAS UMAA2166 growth inhibition – luminescence, BacTiterGlo, counter-screen for streptokinase expression inhibitor project, dose response (AID 1915);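 note: potency for reduction of bacterial viability or growth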
- Assay type: functional, organism-based
Calls of active or inactive are those of the source.
measurement_label: EC50

molecule=Cn1c(O)c(N=NC(=O)c2cc(-c3cccs3)nc3ccccc23)c2ccccc21 readout_value="16.7 µM (active)"
molecule=Cc1ccc(OCCn2c(NC(=O)c3ccco3)nc3ccccc32)cc1 readout_value="3.87 µM (active)"
molecule=Cn1cc(C(=O)c2ccc(Cl)cc2Cl)cc1C(=O)NN=C(N)COc1cccc(C(F)(F)F)c1 readout_value="> 150 µM (not active)"
molecule="O=C(CC1S/C(=N\\c2ccccc2)N(CCc2c[nH]c3ccccc23)C1=O)Nc1ccccc1F (stereo not given)" readout_value="43.5 µM (active)"
molecule="CCC(C)c1ccc(C2C3=C(O)c4ccccc4C3=Nc3nc(N)nc(O)c32)cc1 (stereo not given)" readout_value="8.57 µM (active)"

====

- assayed_target: Glyceraldehyde-3-phosphate dehydrogenase (Homo sapiens)
- Sequence (P04406 whole entry): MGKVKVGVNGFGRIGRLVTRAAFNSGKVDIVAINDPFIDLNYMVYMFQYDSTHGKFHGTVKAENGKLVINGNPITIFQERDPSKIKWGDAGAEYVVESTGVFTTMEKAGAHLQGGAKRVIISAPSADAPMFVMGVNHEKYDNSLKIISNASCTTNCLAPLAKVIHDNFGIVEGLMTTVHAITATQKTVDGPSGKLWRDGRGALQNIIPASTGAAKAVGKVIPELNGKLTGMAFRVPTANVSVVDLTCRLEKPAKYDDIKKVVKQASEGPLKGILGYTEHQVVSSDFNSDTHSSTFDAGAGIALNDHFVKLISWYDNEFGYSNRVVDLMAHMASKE
// reported IC50 for each item listed
measurement_label: IC50

compound="O=C(Oc1ccc2c(c1)C1C=CCC1C(C(=O)O)N2)c1ccc(Cl)cc1Cl (stereo not drawn)" readout_value="> 100 µM (not active)"
compound=O=S(=O)(Nc1ccc2ccccc2c1)c1cc(Cl)ccc1F readout_value="> 10 µM (inconclusive)"
compound="CCOC(=O)C1CCCCN1C(=O)CCc1c(C)nc2cc(-c3ccccc3)nn2c1C (stereo not drawn)" readout_value="> 100 µM (not active)"
compound="O=C(O)C1Nc2c(C(=O)N3CCOCC3)cccc2C2C=CCC12 (stereo not drawn)" readout_value="> 100 µM (not active)"
compound=O=C1C(Cl)=C(Cl)C(=O)N1c1ccc(Cl)nc1 readout_value="> 100 µM (not active)"
compound=O=C1C(Cl)=C(N2CCN(c3ccccc3Cl)CC2)C(=O)N1c1ccc(Cl)c(Cl)c1 readout_value="> 100 µM (not active)"
compound=COc1ccc(C)cc1S(=O)(=O)Nc1cnc2ccccc2c1 readout_value="> 100 µM (not active)"
compound=Cc1cc(C)c(/N=C2\CCCN2Cc2ccccc2)c(C#N)c1 readout_value="> 100 µM (not active)"
compound="O=C1CC(C(=O)Nc2ccc(O)c(C(=O)O)c2)C(c2ccccc2)O1 (stereo not drawn)" readout_value="> 100 µM (not active)"
compound=CC(C)CNC(=O)c1cc(-c2cc(F)c(Cl)cc2Cl)n[nH]1 readout_value="> 10 µM (inconclusive)"
compound="CC1CCN(C2CC(=O)N(c3ccc(Cl)c(Cl)c3)C2=O)CC1 (stereo not drawn)" readout_value="> 100 µM (not active)"
compound=COc1ccc(OC)c(CNc2cnc3ccccc3c2)c1 readout_value="> 100 µM (not active)"
compound=CCn1c(=O)n(Cc2ccccc2C)c(=O)n([C@@H](Cc2ccccc2)C(=O)O)c1=O readout_value="> 100 µM (not active)"

====

- assayed_target: Cytochrome P450 2C19 (Homo sapiens, UniProt P33261)
- Sequence (P33261 whole entry): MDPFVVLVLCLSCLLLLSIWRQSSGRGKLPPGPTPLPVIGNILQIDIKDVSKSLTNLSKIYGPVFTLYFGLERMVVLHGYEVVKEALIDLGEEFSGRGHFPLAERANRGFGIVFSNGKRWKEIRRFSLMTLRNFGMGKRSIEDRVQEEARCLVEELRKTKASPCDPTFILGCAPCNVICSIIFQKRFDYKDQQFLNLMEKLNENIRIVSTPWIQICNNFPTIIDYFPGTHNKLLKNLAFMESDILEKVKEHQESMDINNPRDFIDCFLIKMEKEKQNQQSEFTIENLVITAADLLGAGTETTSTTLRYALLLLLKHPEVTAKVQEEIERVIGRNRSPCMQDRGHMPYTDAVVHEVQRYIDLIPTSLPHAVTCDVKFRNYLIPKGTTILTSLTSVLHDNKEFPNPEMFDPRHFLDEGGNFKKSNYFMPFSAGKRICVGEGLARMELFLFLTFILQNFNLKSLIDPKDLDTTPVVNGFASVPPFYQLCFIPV
- measurement_protocol: Cytochrome panel assay with activity outcomes. Panel member name: p450-cyp2c19 Compounds with AC50 equal or less than 10 uM are considered active
- Type: functional
- condition_parameters: read-out: AC50
// reported AC50 for each item listed
measurement_label: AC50

compound=O=C(Cc1ccccc1)Nc1ccccc1N1CCOCC1 measurement_label=AC50 readout_value="8.91 µM (inconclusive)"
compound=C=CCn1c(S)nnc1-c1cccn(Cc2ccccc2)c1=O measurement_label=AC50 readout_value="25.1 µM (inconclusive)"
compound="Cc1ccc(C)n1C(Cc1ccccc1)C(=O)O (stereo not drawn)" measurement_label=AC50 readout_value="22.4 µM (inconclusive)"
compound=Cc1sc(NC(=O)c2ccc(OCC(C)C)cc2)c(C(N)=O)c1-c1ccc(Cl)cc1Cl measurement_label=AC50 readout_value="1.78 µM (inconclusive)"
compound=O=C(c1ccco1)N1CCC2(CC1)CCN(c1ccccn1)CC2 measurement_label=AC50 readout_value="31.6 µM (inconclusive)"
compound=COc1cccc(OCc2nnc(SCC(=O)NCc3ccco3)n2C)c1 measurement_label=AC50 readout_value="25.1 µM (inconclusive)"
compound="O=C(O)Cc1ccc2c(c1)N(S(=O)(=O)c1cccc(C(F)(F)F)c1)CC(C(=O)O)O2 (stereo not drawn)" measurement_label=AC50 readout_value="25.1 µM (inconclusive)"
compound="CC1CCCC(NC(=O)CCn2c(=O)oc3ccccc32)C1C (stereo not drawn)" measurement_label=AC50 readout_value="4.47 µM (inconclusive)"
